Target: human CSNK1A1 (Homo sapiens (Human), UniProt P48729)
Sequence (P48729 whole entry): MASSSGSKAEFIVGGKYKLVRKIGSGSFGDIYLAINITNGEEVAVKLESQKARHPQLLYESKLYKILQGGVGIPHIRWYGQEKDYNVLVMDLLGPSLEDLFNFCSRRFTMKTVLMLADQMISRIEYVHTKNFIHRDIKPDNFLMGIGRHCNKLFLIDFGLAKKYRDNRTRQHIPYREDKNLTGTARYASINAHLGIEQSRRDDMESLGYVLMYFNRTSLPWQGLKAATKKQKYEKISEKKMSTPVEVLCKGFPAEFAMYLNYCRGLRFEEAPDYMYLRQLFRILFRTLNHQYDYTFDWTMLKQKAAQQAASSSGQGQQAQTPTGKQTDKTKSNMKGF
Test: CSNK1A1 High ATP Assay (ADP-Glo, 1 mM ATP)
Assay type: biochemical
Settings: read-out: CSNK1A1 high ATP assay IC50 [mol/l] (median)
What IC50 was measured for each of the following?
Answer format: numeric, nM implied, no suffix.

Task: Test system human CSNK1A1 (Homo sapiens (Human), UniProt P48729); read-out IC50; what value for CC(C(=O)Nc1cc(-c2[nH]c3c(c2Nc2ccccc2)C(=O)N(C)CC3)ccn1)c1ccc(Cl)cc1 (racemic) [Example 79] ?
Output: 337

Task: Test system human CSNK1A1 (Homo sapiens (Human), UniProt P48729); read-out IC50; what value for CC1(C)Cc2[nH]c(-c3ccnc(NC(=O)C(CN)c4ccc(F)cc4)c3)c(Nc3ccccc3)c2C(=O)N1 (single isomer, unassigned; enantiomer 2) [Example 141] ?
Output: 599

Task: Test system human CSNK1A1 (Homo sapiens (Human), UniProt P48729); read-out IC50; what value for CN1CCc2[nH]c(-c3ccnc(NC(=O)Cc4ccc(S(C)(=O)=O)cc4)c3)c(Nc3ccccc3)c2C1=O [Example 65] ?
Output: 17.5

Task: Test system human CSNK1A1 (Homo sapiens (Human), UniProt P48729); read-out IC50; what value for CC(C(=O)Nc1cc(-c2[nH]c3c(c2Nc2ccccc2)C(=O)N(C)CC3)ccn1)c1ccc(Cl)cc1 (single isomer, unassigned; (-)) [Example 80] ?
Output: 2840

Task: Test system human CSNK1A1 (Homo sapiens (Human), UniProt P48729); read-out IC50; what value for CC(C(=O)Nc1cc(-c2[nH]c3c(c2Nc2ccccc2)C(=O)NC(C)(C)C3)ccn1)c1ccc(F)cc1 (single isomer, unassigned; (+)) [Example 40] ?
Output: 51.7

Task: Test system human CSNK1A1 (Homo sapiens (Human), UniProt P48729); read-out IC50; what value for CC1Cc2[nH]c(-c3ccnc(NC(=O)Cc4ccncc4)c3)c(Nc3ccccc3)c2C(=O)N1C (single isomer, unassigned; (-)) [Example 99] ?
Output: 25.9
